Target: HLA-B*15:17
Test: IEDB peptide-MHC binding, purified MHC/direct/fluorescence; filed as Kd, often an IC50 or EC50 that approximates it; bounds were set here for any values at or beyond the usual limits of such assays
Settings: source organism: Cryptosporidium parvum Iowa II
pKd: −log10 of the molar value.
Reported property: pKd

KQMSQPYAV
≤ 4.70

---

Biological target: HLA-A*03:01
Test: IEDB peptide-MHC binding, purified MHC/competitive/fluorescence; bounds were set here for any values at or beyond the usual limits of such assays
Conditions: source organism: Variola virus
Reported property: IC50 (µM)

IPLASLTPK
66.6

---

Target: HLA-A*26:01
Assay: IEDB peptide-MHC binding, purified MHC/direct/fluorescence; filed as Kd, often an IC50 or EC50 that approximates it; bounds were set here for any values at or beyond the usual limits of such assays
Conditions: source organism: Vibrio vulnificus YJ016
pKd: −log10 of the molar value.
Reported property: pKd

DAYGFHNYK
≤ 4.70

---

Target: HLA-B*51:01
Test: IEDB peptide-MHC binding, purified MHC/competitive/fluorescence; filed as Kd, often an IC50 or EC50 that approximates it; bounds were set here for any values at or beyond the usual limits of such assays
Conditions: source organism: Orthohantavirus puumalaense
Reported property: Kd

SSLRYGNVL
≥ 20 µM

---

Biological target: HLA-C*03:03
Assay: IEDB peptide-MHC binding, purified MHC/direct/fluorescence; filed as Kd, often an IC50 or EC50 that approximates it; bounds were set here for any values at or beyond the usual limits of such assays
Settings: source organism: Escherichia coli O157:H7 str. EDL933
pKd: −log10 of the molar value.
Reported property: pKd

ITIPIGLYL
7.03

---

Target: HLA-A*33:01
Test: IEDB peptide-MHC binding, purified MHC/competitive/radioactivity; filed as Kd, often an IC50 or EC50 that approximates it; bounds were set here for any values at or beyond the usual limits of such assays
Conditions: source organism: Vaccinia virus WR
pKd: −log10 of the molar value.
Reported property: pKd

SIGNVTRLFY
4.76
AAGIIILMEY
5.14
PSVNEYHMLK
4.94
SMTYLYNKY
5.06
LSKDKMDSFK
6.52
FMTLVPVLEK
7.70
VFIHMVRCCK
6.67
ISLNSMYTR
7.07
QIDRLEDLSK
4.83
GVEDTESIER
6.17
FISDNKKEYK
5.98
RLTDTEYRAR
6.33

---

Biological target: HLA-C*07:02
Test: IEDB peptide-MHC binding, purified MHC/direct/fluorescence; filed as Kd, often an IC50 or EC50 that approximates it; bounds were set here for any values at or beyond the usual limits of such assays
Conditions: source organism: Influenza A virus (A/Harbin/1/1988(H1N2))
pKd: −log10 of the molar value.
Reported property: pKd

GRINYYWTL
7.60

---

Molecular target: HLA-A*29:02
Experiment: IEDB peptide-MHC binding, purified MHC/direct/fluorescence; filed as Kd, often an IC50 or EC50 that approximates it; bounds were set here for any values at or beyond the usual limits of such assays
Conditions: source organism: Bacillus cereus H3081.97
Reported property: Kd

YSTVRDLFL
≥ 20 µM

---

Molecular target: HLA-B*51:01
Test: IEDB peptide-MHC binding, purified MHC/competitive/radioactivity; filed as Kd, often an IC50 or EC50 that approximates it; bounds were set here for any values at or beyond the usual limits of such assays
Settings: source organism: Dengue virus 3 Martinique/1243/1999
Reported property: Kd (µM)

IPLQWIASAI
0.00748
LATLRKLCI
2.53
SPTVEESRTI
3.78
